Sourced from PubChem BioAssay (NCI)

Tested on: SK-OV-3 ovarian
Experiment: NCI tumour cell line growth inhibition, 48 h
Quick list: TGI per entry.

A selection of reference data follows.
C=C1C(=O)O[C@H]2[C@H]1CC/C(COC(=O)NCc1cccc(OC)c1)=C\CC[C@@]1(C)O[C@@H]21    28.2 µM
N=C(N)Cn1cnc2ccccc21    > 100 µM

In: Could you share which TGI value was measured for Cn1nc2ccc3nccc(NCCNCCCl)c3c2n1 ?
Out: > 100 µM

In: Could you share which TGI value was measured for COc1cc(C(=C2SCCS2)c2nccc3cc(OC)c(OC)cc23)c([N+](=O)[O-])cc1OC ?
Out: > 100 µM

In: Could you share which TGI value was measured for COc1ccc2nc(C3=CN(C4OC(CO)C(O)C(O)C4O)C4C=CC=CC34)sc2c1 (stereo not given) ?
Out: > 100 µM

* * *

Quick list: TGI per entry.
Tested on: SN12C renal
Assay: NCI tumour cell line growth inhibition, 48 h
API: value field is a number in µM; no unit string.

A selection of reference data follows.
Cc1ccc(C(=O)/C=C/N2CCN(c3cccc(C(F)(F)F)c3)CC2)cc1    36.3
O=C1/C(=C/c2ccc(C(F)(F)F)cc2)COc2ccc(O)cc21    3.46

// below: TGI requested for another compound
In: Could you share which TGI value was measured for Cc1cc(S(=O)(=O)Nc2nc3ccsc3c(=O)n2Cc2ccccc2)c(S)cc1Cl ?
Out: 58.8

* * *

Quick list: log10(TGI) per entry.
Tested on: SK-MEL-2 melanoma
Assay: NCI tumour cell line growth inhibition, 48 h
# values: log10(TGI), units µM

A selection of reference data follows.
CC[S+](C)c1ccc(-c2c3nc(c(-c4ccc([S+](C)CC)cc4)c4ccc([nH]4)c(-c4ccc([S+](C)CC)cc4)c4nc(c(-c5ccc([S+](C)CC)cc5)c5ccc2[nH]5)C=C4)C=C3)cc1 (centres undefined)    1.89
O=C(Nc1ccccc1)OCc1nc2c([nH]1)C(=O)C=CC2=O    1.53
O=C1O[C@H](COC(=O)c2ccccc2)[C@@H](OC(=O)c2ccccc2)C=C1OC(=O)c1ccccc1    1.71
CC(C)(C)n1cc(-c2ccnc(NCCCNS(=O)(=O)c3ccc(Cl)cc3)c2)c(-c2cccc(O)c2)n1    0.59
CCOC(=S)SC/C(=N\OC(C)(C)OC)c1ccccc1    1.64

In: Could you share which log10(TGI) value was measured for c1cc(-c2cnn3nc(N4CCOCC4)ccc23)nc(NC2CC2)n1 ?
Out: 1.33

* * *

Quick list: TGI per entry.
Test system: MDA-MB-231 breast
Assay: NCI tumour cell line growth inhibition, 48 h
Where a SMILES comes first, the peptide text is derived from it. Side-chain parts run from the residue outwards. The star is where a group is joined. Cbz = O=C(OCc1ccccc1)*; Boc = CC(C)(C)OC(=O)*

A selection of reference data follows.
C=C(CN(CCN1CCOCC1)CC(=C)c1ccc(C(=O)Nc2ccccc2N)cc1)c1ccc(C(=O)Nc2ccccc2N)cc1    11.2 µM
O=C(O)C1Cc2ccccc2OC1=O (centres undefined)    > 100 µM
CCCCCCCCCCC(CN(CC)CC)C(O)c1ccccc1 (centres undefined)    3.43 µM
Cc1ccc(C(=O)/C=C/N2CCN(c3cccc(C(F)(F)F)c3)CC2)cc1    33.4 µM
O=C1/C(=C/c2ccc(C(F)(F)F)cc2)COc2ccc(O)cc21    5.65 µM
CN(C)C(=O)CO/N=C1/C(c2c(O)[nH]c3ccccc23)=Nc2ccccc21    > 100 µM

In: Could you share which TGI value was measured for CC(C)CC(NC(=O)OCc1ccccc1)C(=O)NCCCCC(NC(=O)C(CCCCNC(=O)C(CC(C)C)NC(=O)OCc1ccccc1)NC(=O)C(CCCCNC(=O)C(CC(C)C)NC(=O)OCc1ccccc1)NC(=O)C(CCCCNC(=O)C(CC(C)C)NC(=O)OCc1ccccc1)NC(=O)OC(C)(C)C)C(=O)O (centres undefined) (Boc-K([Leu-Cbz])K([Leu-Cbz])K([Leu-Cbz])K([Leu-Cbz])-OH; configuration not given here) ?
Out: > 25 µM

In: Could you share which TGI value was measured for O=C1/C(=C\c2cn(CC(O)CN3CCCCC3)c3ccccc23)c2ccccc2N1c1c(Cl)cccc1Cl (centres undefined) ?
Out: 3.21 µM

In: Could you share which TGI value was measured for CCCCCCCCC[C@@H]1C[C@@H]2CCC3C(C(=O)OCCCCNC(=O)OCc4ccccc4)=C(C)NC(=N1)N32 (some centres undefined) ?
Out: 6.09 µM

In: Could you share which TGI value was measured for COC(=O)c1cccc2c1Oc1ccccc1S2 ?
Out: > 100 µM

In: Could you share which TGI value was measured for CNc1nc(=O)c(C#N)c(-c2ccc(C)cc2)s1 ?
Out: > 100 µM

* * *

Test system: K-562 leukemia
Experiment: NCI tumour cell line growth inhibition, 48 h
readout: TGI

A selection of reference data follows.
c1cc(C2N3CCCN2CC3)ccn1 (stereo unspecified)    > 100 µM
CC1=NN(C(=O)c2ccccc2)C(=O)C1N=Nc1ccccc1C(=O)O (stereo unspecified)    > 29.4 µM
C=C(CN(CCN1CCOCC1)CC(=C)c1ccc(C(=O)Nc2ccccc2N)cc1)c1ccc(C(=O)Nc2ccccc2N)cc1    > 50 µM
CCCCCCCCCCCCOC(=S)NC    45.9 µM
CCOC(=O)c1ccc2c(=O)n3c(C(=O)OCC)ccc3c(=O)n12    > 100 µM

In: Could you share which TGI value was measured for COc1cc(/C=N/O)nc(-c2ccccn2)c1 ?
Out: > 100 µM

In: Could you share which TGI value was measured for Oc1oc(-c2ccccc2)nc1/C=C1/C=NN=N1 ?
Out: > 100 µM

In: Could you share which TGI value was measured for CC(C)(CO)NC(=O)c1cccc(C(=O)NC(C)(C)CO)c1Br ?
Out: > 100 µM

In: Could you share which TGI value was measured for CN(C)NC(=S)NC12CC3CC(CC(C3)C1)C2 ?
Out: > 100 µM

In: Could you share which TGI value was measured for CNC(=O)C(NC(=O)[C@H](CC(C)C)NC(=O)[C@@H](S)CCN1C(=O)N(C)C(C)(C)C1=O)C(C)(C)C (stereo partly specified) ?
Out: > 100 µM

In: Could you share which TGI value was measured for COc1ccc(CCNC(=S)/N=C\C2=C(O)c3ccccc3C2=O)cc1OC ?
Out: > 100 µM

* * *

Tested on: SF-268 CNS
Assay: NCI tumour cell line growth inhibition, 48 h; in the data active means GI50 below about 0.43 µM; inactive means the rest
Pick from 1 for active, -1 for inactive when you respond.

A selection of reference data follows.
COc1ccc2nc(C3=CN(C4OC(CO)C(O)C(O)C4O)C4C=CC=CC34)sc2c1 (centres undefined)    -1
CC1CCC(C#N)(NOC2=NCCN2)CC1 (centres undefined)    -1
c1ccc([P+](CCC[P+](c2ccccc2)(c2ccccc2)c2ccccc2)(c2ccccc2)c2ccccc2)cc1    -1

In: For this compound, state the assay outcome: O=C1C(Nc2cccc(O)c2)=C(Sc2ccc(Cl)cc2)C(=O)N1Cc1ccccc1
Out: -1

In: For this compound, state the assay outcome: CN(C)CCC(=O)NCc1c2nc3ccccc3nc2n2ccccc12
Out: -1

In: For this compound, state the assay outcome: CC1(C)CC(O)CCCCCCOc2c(CN)cccc2NC(=O)c2nc(cnc2N)-c2ccc(cc2)S1(=O)=O (centres undefined)
Out: -1

In: For this compound, state the assay outcome: ClC1=C(Cl)C(Cl)=C(Cl)C1=Cc1ccc(Cl)cc1Cl
Out: 1

In: For this compound, state the assay outcome: O=C1C(Cl)=C(Nc2ccc3c(c2NC2=C(Cl)C(=O)c4ccccc4C2=O)C(=O)c2ccccc2C3=O)C(=O)c2ccccc21
Out: -1

In: For this compound, state the assay outcome: COc1ccc(Cn2c3c(c4c(O)cccc42)C(=O)c2ccccc2-3)cc1
Out: -1

* * *

Quick list: TGI per entry.
Test system: HOP-62 NSCLC
Experiment: NCI tumour cell line growth inhibition, 48 h

A selection of reference data follows.
CCOC(=O)C1CCCC1S(=O)(=O)c1ccc(C)cc1 (configuration not stated)    > 100 µM
C=C1C(=O)O[C@H]2[C@H]1CC/C(COC(=O)NCc1cccc(OC)c1)=C\CC[C@@]1(C)O[C@@H]21    28.3 µM
CCN(CC)CCNC(=O)c1cc2cc(NC(=O)c3cc4cc(NC(=O)c5cc6cc([N+](=O)[O-])ccc6[nH]5)ccc4[nH]3)ccc2[nH]1    > 100 µM
COC(=O)C[C@](O)(CCC(C)(C)O)C(=O)O[C@@H]1C(OC)=C[C@]23CCCN2CCc2cc4c(cc2[C@H]13)OCO4    0.59 µM
O=C(Nc1ccc(Cl)cc1)c1cc(S(=O)(=O)NC2=NC(c3ccccc3)c3cc(Cl)ccc3N2)c(SSc2cc(Cl)c(C(=O)Nc3ccc(Cl)cc3)cc2S(=O)(=O)NC2=NC(c3ccccc3)c3cc(Cl)ccc3N2)cc1Cl (configuration not stated)    > 100 µM

In: Could you share which TGI value was measured for CSc1ccc(C(=O)/C=C/c2ccc(F)cc2)cc1 ?
Out: > 100 µM

In: Could you share which TGI value was measured for O=C(Nn1c2c(sc1=NC1CC1)C(=O)c1ccccc1C2=O)c1cc2ccc1CCc1ccc(cc1)CC2 ?
Out: 17.2 µM

In: Could you share which TGI value was measured for CCOc1ccc(C(c2c(O)c3ccccc3oc2=O)c2c(O)c3ccccc3oc2=O)cc1 ?
Out: > 100 µM
